Molecular target: tubulin (Sus scrofa, UniProt P02550+P02554)
Construct: purchased Cytoskeleton Inc., Denver, CO, USA
Sequence (P02554 whole entry): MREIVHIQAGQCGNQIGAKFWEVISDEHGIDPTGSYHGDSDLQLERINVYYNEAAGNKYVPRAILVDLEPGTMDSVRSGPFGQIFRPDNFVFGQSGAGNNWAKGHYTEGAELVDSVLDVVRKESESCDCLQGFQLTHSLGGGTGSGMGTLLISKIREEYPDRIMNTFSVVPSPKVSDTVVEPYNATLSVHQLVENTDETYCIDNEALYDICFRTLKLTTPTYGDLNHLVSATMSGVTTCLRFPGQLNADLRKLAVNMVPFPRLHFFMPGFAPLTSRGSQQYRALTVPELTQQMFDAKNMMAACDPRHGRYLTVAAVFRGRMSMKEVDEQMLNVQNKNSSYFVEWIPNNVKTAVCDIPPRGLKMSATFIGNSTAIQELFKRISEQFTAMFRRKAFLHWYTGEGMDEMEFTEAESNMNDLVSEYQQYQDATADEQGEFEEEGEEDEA
Sequence (P02550 whole entry): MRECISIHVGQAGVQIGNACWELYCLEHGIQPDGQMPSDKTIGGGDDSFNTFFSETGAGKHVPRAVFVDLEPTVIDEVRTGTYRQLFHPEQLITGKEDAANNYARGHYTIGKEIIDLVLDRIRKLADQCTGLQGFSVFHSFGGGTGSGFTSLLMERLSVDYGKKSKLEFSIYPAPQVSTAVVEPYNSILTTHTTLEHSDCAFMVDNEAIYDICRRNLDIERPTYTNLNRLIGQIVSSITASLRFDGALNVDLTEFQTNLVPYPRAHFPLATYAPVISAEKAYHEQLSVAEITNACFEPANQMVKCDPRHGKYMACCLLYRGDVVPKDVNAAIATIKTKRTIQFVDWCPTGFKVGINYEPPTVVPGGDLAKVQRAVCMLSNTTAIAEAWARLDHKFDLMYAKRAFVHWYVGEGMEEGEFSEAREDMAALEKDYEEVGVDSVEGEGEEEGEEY
Assay: Tubulin polymerization inhibitory assay
Format: biochemical
Settings: conc 0.01 (unit not given; IC50 from this curve in µg/ml)
Threshold check on %inhibition: at or above 6% gives y, strictly below gives n.

Decide: is the reported value of %inhibition for Cc1ccc(/C(CSc2nnc(-c3c[nH]c4ccccc34)n2-c2ccccc2)=N/O)cc1 [Compound 7h] equal to or greater than 6%?
n

Decide: is the reported value of %inhibition for O/N=C(\CSc1nnc(-c2c[nH]c3ccccc23)n1-c1ccccc1)c1ccc(Cl)cc1 [Compound 7j] equal to or greater than 6%?
n

Decide: is the reported value of %inhibition for O/N=C(\CSc1nnc(-c2c[nH]c3ccccc23)n1-c1ccccc1)c1ccc(Br)cc1 [Compound 7i] equal to or greater than 6%?
y

Decide: is the reported value of %inhibition for COc1ccc(/C=C\c2cc(OC)c(OC)c(OC)c2)cc1O [CA-4, combretastatin A-4, reference compound] equal to or greater than 6%?
y
